The measured values listed here are drawn from PubChem BioAssay (EPA / NIEHS).

# System Tested: Bile acid receptor (Homo sapiens) (UniProt Q96RI1)
# Sequence (Q96RI1 whole entry, looked up): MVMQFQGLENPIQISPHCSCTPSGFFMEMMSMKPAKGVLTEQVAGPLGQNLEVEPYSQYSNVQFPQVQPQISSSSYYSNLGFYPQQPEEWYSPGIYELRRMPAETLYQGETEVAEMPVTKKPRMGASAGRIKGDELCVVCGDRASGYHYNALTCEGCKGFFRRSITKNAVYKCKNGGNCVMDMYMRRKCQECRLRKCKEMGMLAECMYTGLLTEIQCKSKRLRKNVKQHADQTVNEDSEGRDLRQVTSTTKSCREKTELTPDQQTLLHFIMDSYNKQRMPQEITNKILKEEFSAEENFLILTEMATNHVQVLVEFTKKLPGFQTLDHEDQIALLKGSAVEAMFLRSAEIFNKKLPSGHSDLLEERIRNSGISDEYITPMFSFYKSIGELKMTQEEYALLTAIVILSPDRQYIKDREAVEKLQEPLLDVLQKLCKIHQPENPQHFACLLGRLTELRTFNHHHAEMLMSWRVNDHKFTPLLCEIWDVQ
# Assay Text: OT_FXR_FXRSRC1_1440: Odyssey Thera (OT) 24-hour HEK293T Protein-Complementation Assay for Farnesoid X receptor/SRC-1 Co-activator (AID 2283384)
Records with an inconclusive call do not appear. The source made the active and inactive calls. Rule for the calls: active = hit-call score of the fitted dose curve at least 0.9, where 1 is the maximum; inconclusive = response in the unintended direction; inactive = score below 0.9.
Metric Name: AC50

Solved cases below.
{"columns": ["Compound", "System Tested", "Measured Value"],
 "data": [
  ["CCCOC(=O)c1cc(O)c(O)c(O)c1", "Bile acid receptor (Homo sapiens) (UniProt Q96RI1)", "inactive"],
  ["Oc1ccccc1", "Bile acid receptor (Homo sapiens) (UniProt Q96RI1)", "inactive"],
  ["O=C(OCCCCCCOC(=O)c1ccccc1)c1ccccc1", "Bile acid receptor (Homo sapiens) (UniProt Q96RI1)", "inactive"],
  ["OCCO", "Bile acid receptor (Homo sapiens) (UniProt Q96RI1)", "inactive"],
  ["O=C(O)c1ccccc1-n1cc(C(=O)O)c(=O)c2cc(Nc3c(F)cc(F)cc3Cl)c(Cl)cc21", "Bile acid receptor (Homo sapiens) (UniProt Q96RI1)", "inactive"]
]}

Value sought for every listed compound: AC50.
1. CC[C@H](NC(=O)c1cc(F)ccc1NS(=O)(=O)c1cccc2cccnc12)c1ccccc1
2. Cc1oc2c(NC(=O)c3c(Cl)cccc3Cl)cccc2c1C(C)(C)O
3. CN1C(=O)N(c2ccccc2Br)Cc2cnc(Nc3ccc4c(c3)OCC(CO)O4)nc21 (centres undefined)
4. Clc1cc(Cl)c2c(c1)N=C1CCCCCN1C2

1: inactive; 2: 13.5 µM (active); 3: 0.54 µM (active); 4: inactive

---

# Read-out: Tumor necrosis factor receptor 1 (TNFRSF1A), TNFRSF1A (gene 7132)
# Assay Text: LTEA_HepaRG_TNFRSF1A: Life Technologies and Expression Analysis (LTEA) Assay for Tumor necrosis factor receptor 1 (TNFRSF1A) using HepaRG (AID 2283535)
# Study Conditions: mRNA level, 48 h; actives raise or lower the signal
Activity calls are given as the source filed them. Rule for the calls: active = hit-call score of the fitted dose curve at least 0.9, where 1 is the maximum; inactive = score below 0.9.
Give one outcome, nothing more. List: 1.0 = active, 0.0 = inactive

Record excerpt, results attached:
{"columns": ["Compound", "Class"],
 "data": [
  ["CC[C@@H]1C[C@H](N(Cc2cc(C(F)(F)F)cc(C(F)(F)F)c2)C(C)=O)c2cc(C(F)(F)F)ccc2N1C(=O)OC(C)C", 0.0],
  ["CCCCCCCCCC(=O)O", 0.0],
  ["O=C1c2ccccc2C(=O)N1CCc1noc(-c2ccc(CN3CCCCCC3)s2)n1", 0.0],
  ["O=CCCCC=O", 0.0],
  ["CN1C(=O)N(c2ccccc2Br)Cc2cnc(Nc3ccc4c(c3)OCC(CO)O4)nc21 (configuration not stated)", 1.0],
  ["CCCCCCCCCCCCO", 0.0]
]}

Shifting focus to the compound that follows.
Lab log entry: CCCCCc1ccc(N)cc1 — outcome as called in the assay? 0.0

---

# Assay Text: CCTE_Shafer_MEA_acute_burst_duration_mean: CCTE's Neural Acute Assay for Mean Burst Duration, Shafer Lab (AID 2284014);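 note: hits are decreases in mean burst duration relative to DMSO controls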
# Method: CCTE_Shafer_MEA_acute assay is conducted using Axion Biosystems 48 well microelectrode array (MEA) plates and Maestro recording system. Each well of the MEA plate contains a grid of 16 microelectrodes embedded in the culture surface. Electrically active cells, such as neurons, can be cultured over the electrodes, and electrical activity in these cells can be recorded extracellularly. […]
The source made the active and inactive calls. How the source made its calls: active means hit-call score of the fitted dose curve at least 0.9, where 1 is the maximum; inactive means score below 0.9.
The reply should be one of these categories: 1.0 for active, 0.0 for inactive

Record excerpt, results attached:
{"columns": ["Molecule", "Class"],
 "data": [
  ["Clc1ccccc1C(c1ccccc1)(c1ccccc1)n1ccnc1", 0.0],
  ["Cc1cc2c(cc1C(F)(F)F)N(C(=O)Nc1ccc(Oc3cccnc3C)nc1)CC2", 0.0],
  ["NCc1cccc(C2CCN(C(=O)c3ccc(C#Cc4ccccc4F)o3)CC2)c1", 0.0],
  ["CN(C)C(=O)C1(N2CCCCC2)CCN(CC[C@@]2(c3ccc(Cl)c(Cl)c3)CN(C(=O)c3ccccc3)CCO2)CC1", 1.0],
  ["CC(O)CC(C)(C)O (stereo unspecified)", 0.0]
]}

Next item in the queue.
// outcome(item) with item = COc1cccc([C@H](O)C2CCN(CCc3ccc(F)cc3)CC2)c1OC 0.0
